# target_or_system: human T-bet (Homo sapiens, UniProt Q9UL17)
# Construct: expressed in transfected cells; host or cells: engineered HEK cells (HEKT-bet)
# Sequence (Q9UL17 whole entry): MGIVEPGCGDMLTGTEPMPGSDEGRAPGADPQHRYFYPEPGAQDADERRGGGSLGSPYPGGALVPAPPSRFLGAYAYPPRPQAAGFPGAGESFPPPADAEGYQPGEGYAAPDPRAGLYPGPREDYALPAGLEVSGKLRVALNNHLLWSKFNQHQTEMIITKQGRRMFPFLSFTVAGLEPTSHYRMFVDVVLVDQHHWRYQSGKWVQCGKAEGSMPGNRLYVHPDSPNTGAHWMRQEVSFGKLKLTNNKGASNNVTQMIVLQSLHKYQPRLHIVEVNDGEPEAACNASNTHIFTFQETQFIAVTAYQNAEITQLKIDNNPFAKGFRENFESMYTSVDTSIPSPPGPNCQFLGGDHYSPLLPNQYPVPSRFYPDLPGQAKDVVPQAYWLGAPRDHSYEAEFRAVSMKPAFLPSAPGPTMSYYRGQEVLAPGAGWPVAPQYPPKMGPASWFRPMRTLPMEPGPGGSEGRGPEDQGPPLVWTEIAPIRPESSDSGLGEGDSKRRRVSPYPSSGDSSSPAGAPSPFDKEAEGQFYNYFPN
# protocol_summary: HEKT-bet-luc assay (T-bet dependent luciferase reporter in engineered HEK cells)
# Assay type: cell-based
# test_settings: Table 4; HEKT-bet cells, compound 24 hours; IC50 normalized to reference ER-213038; read-out: IC50
pIC50: −log10 of the molar value.
property: pIC50

Consider the reported pIC50 for these compounds:
smiles_input | pIC50
COCCCN1C(=O)N(Cc2cc(OC)cc(OC)c2)C(=O)C12CCN(Cc1cc(OC)cc(OC)c1)CC2 | 6.50
COc1cccc(CN2C(=O)N(C)C3(CCN(Cc4cccc5ccccc45)CC3)C2=O)c1 | 6.84
COCCN1C(=O)N(Cc2cccc(OC)c2)C(=O)C12CCN(Cc1cccc(-c3ccncc3)c1)CC2 | 6.45

[A] COCCN1C(=O)N(Cc2cc(F)cc(F)c2)C(=O)C12CCN(Cc1cc(OC)cc(OC)c1)CC2
[B] COCCN1C(=O)N(C/C=C/c2ccc(C)cc2)C(=O)C12CCN(Cc1ccccc1)CC2
[C] COCCN1C(=O)N(Cc2cccc(OC)c2)C(=O)C12CCN(Cc1cccc(-c3ccc(O)cc3)c1)CC2
# input Sequence the entries by pIC50, beginning with the highest number. As an answer, provide the labels arranged in the order called for.
# output C, B, A

###

# target_or_system: human T-bet (Homo sapiens, UniProt Q9UL17)
# Construct: expressed in transfected cells; host or cells: engineered HEK cells (HEKT-bet)
# protocol_summary: HEKT-bet-luc assay (T-bet dependent luciferase reporter in engineered HEK cells)
# Format: cell-based
# test_settings: Table 4; HEKT-bet cells, compound 24 hours; IC50 normalized to reference ER-213038; read-out: IC50
property: IC50 (nM)

compound | target_or_system | numeric_value
COCCN1C(=O)N(Cc2cccc(OC)c2)C(=O)C12CCN(Cc1cc(OC)cc(OC)c1F)CC2 [Example 146] | human T-bet (Homo sapiens, UniProt Q9UL17) | 142
COCCN1C(=O)N(Cc2cccc(OC)c2)C(=O)C12CCN(Cc1cccc3c4ccccc4n(C)c13)CC2 [Example 295] | human T-bet (Homo sapiens, UniProt Q9UL17) | 580
C=Cc1cccc(CN2CCC3(CC2)C(=O)N(Cc2cccc(OC)c2)C(=O)N3CCOC)c1 [Example 264] | human T-bet (Homo sapiens, UniProt Q9UL17) | 500

[a] COc1cccc(CN2C(=O)N(Cc3cccc(OC)c3)C3(CCN(Cc4cccc5ccccc45)CC3)C2=O)c1 [Example 299]
[b] CCN1C(=O)N(C/C=C/c2ccccc2)C(=O)C12CCN(Cc1cccc(C)c1)CC2 [Example 125]
# input Hi, I'm comparing two records. Which one has the lower IC50, a or b ? Respond using the label that marks the chosen record.
# output b

[I] COCCN1C(=O)N(Cc2ccc3ccccc3c2)C(=O)C12CCN(Cc1cccc3ccccc13)CC2 [Example 187]
[II] COCCN1C(=O)N(Cc2cccc(OC)c2)C(=O)C12CCN(Cc1cc3ccccc3c3ccccc13)CC2 [Example 157]
# input Hi, I'm comparing two records. Which one has the lower IC50, I or II ? Respond using the label that marks the chosen record.
# output II
(II: 161 nM, I: 243 nM)

###

# target_or_system: human T-bet (Homo sapiens, UniProt Q9UL17)
# Construct: expressed in transfected cells; host or cells: engineered HEK cells (HEKT-bet)
# protocol_summary: HEKT-bet-luc assay (T-bet dependent luciferase reporter in engineered HEK cells)
# Assay type: cell-based
# test_settings: Table 4; HEKT-bet cells, compound 24 hours; IC50 normalized to reference ER-213038; read-out: IC50
pIC50: −log10 of the molar value.
property: pIC50

Consider the reported pIC50 for these compounds:
compound | pIC50
COCCN1C(=O)N(Cc2cccc(OC)c2)C(=O)C12CCN(Cc1cccc3ccccc13)CC2 [Example 133] | 6.92
COCCN1C(=O)N(Cc2cccc(OC)c2)C(=O)C12CCN(Cc1ccc(F)c(OC)c1)CC2 [Example 278] | 6.27
COCCN1C(=O)N(Cc2cccc(OC)c2)C(=O)C12CCN(Cc1csc3ccccc13)CC2 [Example 172] | 6.71
O=C1N(C/C=C/c2ccccc2)C(=O)C2(CCN(Cc3cccc4ccccc34)CC2)N1Cc1cccc2cccnc12 [Example 247] | 6.36
COCCN1C(=O)N(Cc2cccc(OC)c2)C(=O)C12CCN(Cc1c(C)c(C)cc(C)c1C)CC2 [Example 192] | 6.59
COCCN1C(=O)N(Cc2cccc(OC)c2)C(=O)C12CCN(Cc1ccccc1C)CC2 [Example 193] | 6.58

[a] COCCN1C(=O)N(CCCOc2ccccc2)C(=O)C12CCN(Cc1cccc(OC)c1)CC2 [Example 220]
[b] COc1cc(CN2CCC3(CC2)C(=O)N(C/C=C/c2ccccc2)C(=O)N3Cc2ccccn2)cc(OC)c1 [Example 143]
# input Hi, I'm comparing two records. Which one has the lower pIC50, a or b ? Respond using the label that marks the chosen record.
# output a

# credit: patent US7666875B2
